- Protocol Description: Selectivity index, ratio of CC50 for human TZM-bl cells to EC50 for X4 tropic Human immunodeficiency virus 1 subtype B-3B
- Assay type: cell-based
- Conditions: read-out: Ratio CC50/EC50
Readout Label: selectivity ratio
Please give only the number in your answer, with no unit.

Solved cases below.
Cc1cccc(N2C(=O)CSC2c2c(Cl)cncc2Cl)n1 (stereo unspecified) | 69.8
Cc1cc(C)nc(N2C(=O)CSC2c2c(Br)cncc2Br)c1 (stereo unspecified) | 35.3
Cc1nc(N2C(=O)CSC2c2c(Cl)cncc2Cl)ccc1Br (stereo unspecified) | 10.8

selectivity ratio measured on CSc1nc(Cl)cc(N2C(=O)CSC2c2c(F)cccc2Cl)n1 (stereo unspecified) = 29

# selectivity ratio of Cc1nc(N2C(=O)CSC2c2c(Br)cncc2Br)ccc1Br (stereo unspecified) = 4.4

// sample Cc1cc(N2C(=O)CSC2c2c(F)cccc2F)no1 (stereo unspecified) , its selectivity ratio was 62

Record Cc1cc(N2C(=O)CSC2c2c(F)cccc2Cl)nc(C)c1Br (stereo unspecified) , field selectivity ratio: 447

selectivity ratio reported for this compound CC(C)(C)c1cc(N2C(=O)CSC2c2c(Cl)cccc2Cl)no1 (stereo unspecified) : 32.6

Field selectivity ratio (entry CC(C)(C)c1cc(N2C(=O)CSC2c2c(F)cccc2Cl)no1 (stereo unspecified) ) reads 20.8

The compound identified as Cc1cc(N2C(=O)CSC2c2c(Cl)cccc2Cl)nc(C)c1Br (stereo unspecified) registered its selectivity ratio at 2.4

Measured selectivity ratio of Cc1cc(N2C(=O)CSC2c2c(Cl)cccc2Cl)no1 (stereo unspecified) : 116

###

- Protocol Description: Selectivity index, ratio of CC50 for human TZM-bl cells to EC50 for R5 tropic Human immunodeficiency virus 1 subtype B-ADA5
- Format: toxicity, cell-based
- Conditions: read-out: Ratio CC50/EC50
Kind request: treat 10 as inclusive, so selectivity ratio at 10 or higher is Fulfilled, anything lower is Not fulfilled.

Take a look at these entries with their results.
CC(C)(C)c1cc(N2C(=O)CSC2c2c(F)cccc2Cl)no1 (stereo unspecified) | Fulfilled
Cc1cc(N2C(=O)CSC2c2c(Cl)cccc2Cl)no1 (stereo unspecified) | Fulfilled
Cc1cc(N2C(=O)CSC2c2c(Cl)cncc2Cl)nc(C)c1Br (stereo unspecified) | Not fulfilled

q: Entry Cc1cc(N2C(=O)CSC2c2c(Cl)cccc2Cl)nc(C)c1Br (stereo unspecified) : is its selectivity ratio no less than 10?
a: Not fulfilled

q: Kindly determine if selectivity ratio recorded for Cc1nc(N2C(=O)CSC2c2c(Br)cncc2Br)ccc1Br (stereo unspecified) is above or exactly 10.
a: Fulfilled

###

- Protocol Description: Selectivity index, ratio of CC50 for human TZM-bl cells to EC50 for R5 tropic Human immunodeficiency virus 1 subtype C-VB59
- Assay type: toxicity, cell-based
- Conditions: read-out: Ratio CC50/EC50
Friendly reminder: selectivity ratio below 30 is YES, at or above is NO.

Example entries and their recorded answers appear below.
CC(C)(C)c1cc(N2C(=O)CSC2c2c(F)cccc2Cl)no1 (stereo unspecified) | YES
Cc1cc(C)nc(N2C(=O)CSC2c2c(Br)cncc2Br)c1 (stereo unspecified) | NO
Cc1cc(N2C(=O)CSC2c2c(F)cccc2F)no1 (stereo unspecified) | NO
Cc1cc(N2C(=O)CSC2c2c(Cl)cccc2Cl)nc(C)c1Br (stereo unspecified) | YES
Cc1cc(N2C(=O)CSC2c2c(Cl)cccc2Cl)no1 (stereo unspecified) | NO

Now look at this one.
q: Determine if Cc1cccc(N2C(=O)CSC2c2c(Br)cncc2Br)n1 (stereo unspecified) shows selectivity ratio strictly lower than 30.
a: YES
